Reported AST by item:
Protocol: Tolerability in CD-1 mice, plasma chemistry markers (Example 18)
Type: in vivo
Stated Conditions: male CD-1 mice, 50 mg/kg s.c. twice a week (total of 9 treatments), day 34
Strand notation (5' to 3'): a small letter for the sugar, then the base; units joined by * are phosphorothioate-linked, units joined directly phosphodiester-linked; [ ] holds rarer units or linkages, { } end groups; capitals alone tell only the bases. k = constrained ethyl (cEt); [5mC] = 5-methylcytosine; d = 2'-deoxy (DNA)
Field format: number, assumed U/L, no unit text.

Previously resolved entries follow.
INSERT INTO assay_data (substance, endpoint_result) VALUES
  ('1074755 (k[5mC]*kA*k[5mC]*dT*dT*dT*dT*dA*d[5mC]*dA*dT*dT*dA*kG*kG*kA; antisense) [compound 1074755]', 104),
  ('1076453 (GTAATATTGCAATCTG; 3-10-3 cEt gapmer, further chemistry not given here) [compound 1076453]', 113),
  ('958499 (ATTAGAGTATGTGGCA; 3-10-3 cEt gapmer, further chemistry not given here) [compound 958499]', 88);

// switching to the query substance
Query: Provide only the value of recorded AST for 1076481 (k[5mC]*kT*kA*dA*dG*dT*dA*dA*dG*dG*dT*dT*dT*k[5mC]*k[5mC]*k[5mC]) [compound 1076481]
Reply: 121

----------
Test system: Yap1 mRNA
Protocol: Dose-dependent inhibition of human Yap1 in A-431 cells (Example 8, 10,000 cells per well, RTS4814)
Format: cell-based
Stated Conditions: 125.0 nM; A-431 cells, 10,000 cells per well, free uptake, approximately 48 hours, RTS4814
Strand notation (5' to 3'): a small letter for the sugar, then the base; units joined by * are phosphorothioate-linked, units joined directly phosphodiester-linked; [ ] holds rarer units or linkages, { } end groups; capitals alone tell only the bases. k = constrained ethyl (cEt); [5mC] = 5-methylcytosine; d = 2'-deoxy (DNA)
Property Name: Yap1 mRNA, % UTC (% UTC)
Field format: number, assumed % UTC, no unit text.

INSERT INTO assay_data (substance, endpoint_result) VALUES
  ('1076386 (antisense kA*kG*kT*dT*dA*dT*dA*dA*d[5mC]*dA*dG*dT*dG*kT*kA*kA) [compound 1076386]', 30);

Query: Please indicate recorded Yap1 mRNA, % UTC of 1076467 (kG*kT*kA*dT*dT*dT*dA*dG*dA*dG*d[5mC]*dT*dT*kA*kA*kG; antisense) [compound 1076467] measured with Yap1 mRNA.
Reply: 6

Query: Please indicate recorded Yap1 mRNA, % UTC of 1076526 (kG*kT*kA*dG*dA*dA*dA*dG*dA*dT*dG*dG*d[5mC]*kT*k[5mC]*kA; antisense) [compound 1076526] measured with Yap1 mRNA.
Reply: 9

Query: Please indicate recorded Yap1 mRNA, % UTC of 1075819 (kG*kT*kA*dT*dA*dT*d[5mC]*d[5mC]*dG*dT*dT*d[5mC]*dT*k[5mC]*kA*kT; antisense) [compound 1075819] measured with Yap1 mRNA.
Reply: 18

Query: Please indicate recorded Yap1 mRNA, % UTC of 1076494 (k[5mC]*kT*kA*dA*dT*dT*dG*dA*dA*dG*d[5mC]*dT*dG*kG*k[5mC]*kA; antisense) [compound 1076494] measured with Yap1 mRNA.
Reply: 7

Query: Please indicate recorded Yap1 mRNA, % UTC of 1074479 (k[5mC]*kA*kT*dT*dT*dG*d[5mC]*d[5mC]*dT*dA*dG*dG*dT*kT*k[5mC]*k[5mC]; antisense) [compound 1074479] measured with Yap1 mRNA.
Reply: 8

Query: Please indicate recorded Yap1 mRNA, % UTC of 1076000 (k[5mC]*k[5mC]*kT*dA*dA*dT*dA*dT*dG*dA*d[5mC]*dT*d[5mC]*k[5mC]*kT*kT; antisense) [compound 1076000] measured with Yap1 mRNA.
Reply: 31

Query: Please indicate recorded Yap1 mRNA, % UTC of 1075395 (antisense kA*kT*kG*dA*dA*dT*dA*dA*dG*dT*dA*dT*dG*k[5mC]*k[5mC]*kA) [compound 1075395] measured with Yap1 mRNA.
Reply: 18

Query: Please indicate recorded Yap1 mRNA, % UTC of 1074245 (antisense kA*kG*kA*dA*dG*dT*dA*dT*d[5mC]*dT*d[5mC]*dT*dG*kA*k[5mC]*k[5mC]) [compound 1074245] measured with Yap1 mRNA.
Reply: 21

Query: Please indicate recorded Yap1 mRNA, % UTC of 1076017 (k[5mC]*kT*kA*dA*dT*dA*dG*dG*dA*dT*dG*dG*dA*kT*kT*k[5mC]; antisense) [compound 1076017] measured with Yap1 mRNA.
Reply: 25

Query: Please indicate recorded Yap1 mRNA, % UTC of 1074446 (kA*kT*kG*dA*dT*dA*dG*d[5mC]*dA*d[5mC]*dT*dA*dG*kG*kA*kG; antisense) [compound 1074446] measured with Yap1 mRNA.
Reply: 11

Query: Please indicate recorded Yap1 mRNA, % UTC of 1075855 (antisense kG*kA*kT*dT*dT*dT*dT*dA*dG*dG*d[5mC]*dA*dG*kA*k[5mC]*kG) [compound 1075855] measured with Yap1 mRNA.
Reply: 30

Query: Please indicate recorded Yap1 mRNA, % UTC of 1076490 (k[5mC]*k[5mC]*kA*dA*dA*dA*dT*dA*dG*dG*dT*dG*dA*kG*kT*k[5mC]; antisense) [compound 1076490] measured with Yap1 mRNA.
Reply: 9

----------
System: Yap1 mRNA
Protocol: Antisense inhibition of human Yap1 in SNU-449 cells by modified oligonucleotides, single dose (Example 5, RTS36584)
Format: cell-based
Stated Conditions: Table 51; Yap1 mRNA remaining as percent of untreated control (UT), SNU-449 cells, single dose
Strand notation (5' to 3'): a small letter for the sugar, then the base; units joined by * are phosphorothioate-linked, units joined directly phosphodiester-linked; [ ] holds rarer units or linkages, { } end groups; capitals alone tell only the bases. k = constrained ethyl (cEt); [5mC] = 5-methylcytosine; d = 2'-deoxy (DNA); m = 2'-O-methyl
I'd appreciate it if you marked entries Criterion met when YAP1 (% UT) is lower than 40 % UT and Criterion not met when it is not.

Solved cases below.
INSERT INTO measurements (substance, experimental_target, group) VALUES
  ('1197258 (antisense kA*kT*kT*d[5mC]*mA*dG*dA*dT*dT*dT*dA*dG*dG*kA*kT*kG) [Compound 1197258]', 'Yap1 mRNA', 'Criterion not met'),
  ('1197307 (kA*kT*kA*dT*mU*dG*d[5mC]*dA*dA*dT*d[5mC]*dT*dG*kT*k[5mC]*kT; antisense) [Compound 1197307]', 'Yap1 mRNA', 'Criterion not met'),
  ('1197272 (^{m}C_{ks}T_{ks}T_{ks}T_{ds}A_{ys}A_{ds}A_{ds}G_{ds}T_{ds}G_{ds}T_{ds}A_{ds}T_{ds}G_{ks}T_{ks}^{m}C_{k}; as printed in the source, key not given here) [Compound 1197272]', 'Yap1 mRNA', 'Criterion met');

Consider now this further substance.
Query: Report whether reported YAP1 (% UT) is lower than 40 % UT (strictly) for 715487 (antisense kA*kT*kT*dA*d[5mC]*dT*dT*d[5mC]*dA*dT*dA*dG*d[5mC]*kT*kT*kA) [Compound 715487]
Reply: Criterion met

----------
Tested on: Yap1 mRNA
Protocol: Antisense inhibition of human Yap1 in SNU-449 cells by modified oligonucleotides, single dose (Example 5, RTS36584)
Assay type: cell-based
Stated Conditions: Yap1 mRNA, percent of untreated control; modified oligonucleotides targeting SEQ ID NO: 1 and 2; Table 47
Strand notation (5' to 3'): a small letter for the sugar, then the base; units joined by * are phosphorothioate-linked, units joined directly phosphodiester-linked; [ ] holds rarer units or linkages, { } end groups; capitals alone tell only the bases. k = constrained ethyl (cEt); [5mC] = 5-methylcytosine; d = 2'-deoxy (DNA)
Property Name: YAP1 (% UT)
Field format: number, assumed % UT, no unit text.

Query: Provide only the value of recorded YAP1 (% UT) for 1197176 (antisense kT*kG*kT*d[5mC]*dT*d[5mC]*dA*dT*dG*d[5mC]*d[5mC]*dT*dT*kA*kT*kA) [Compound 1197176]
Reply: 17

Query: Provide only the value of recorded YAP1 (% UT) for 1197209 (antisense kT*kG*kT*dA*dA*dT*dA*dT*dT*dG*d[5mC]*dA*dA*kT*k[5mC]*kT) [Compound 1197209]
Reply: 33

Query: Provide only the value of recorded YAP1 (% UT) for 1197226 (antisense kA*kG*kA*d[5mC]*dT*dA*dA*dG*dT*dA*dA*dG*dG*kT*kT*kT) [Compound 1197226]
Reply: 67

Query: Provide only the value of recorded YAP1 (% UT) for 1197221 (antisense kA*kG*kT*dA*dA*dG*dG*dT*dT*dT*d[5mC]*d[5mC]*d[5mC]*kA*kG*kA) [Compound 1197221]
Reply: 42

Hello, the source for this data is patent US11214803B2, in case you need it.
